# TEST PROTOCOL: PET hydrolysis product formed (TPA+MHET+BHET, UV-Vis) per mg enzyme (mmol/mg enzyme); higher = more PET depolymerisation activity; extreme values may be limits of the assay
# RECORDED CONDITIONS: PET substrate: aFilm; 60 °C; pH 6.5; 2 h
REPORTED METRIC: PET hydrolysis product formed

SEQUENCE DATA	REPORTED METRIC	REPORTED
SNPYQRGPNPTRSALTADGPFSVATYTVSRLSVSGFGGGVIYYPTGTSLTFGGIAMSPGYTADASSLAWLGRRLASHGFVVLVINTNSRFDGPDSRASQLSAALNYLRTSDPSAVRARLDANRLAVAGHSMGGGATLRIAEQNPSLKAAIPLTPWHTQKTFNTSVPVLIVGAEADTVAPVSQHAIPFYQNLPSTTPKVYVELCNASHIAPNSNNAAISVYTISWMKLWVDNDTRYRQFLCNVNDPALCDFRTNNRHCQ [LCC-ICCG DAQI]	PET hydrolysis product formed	0.0428
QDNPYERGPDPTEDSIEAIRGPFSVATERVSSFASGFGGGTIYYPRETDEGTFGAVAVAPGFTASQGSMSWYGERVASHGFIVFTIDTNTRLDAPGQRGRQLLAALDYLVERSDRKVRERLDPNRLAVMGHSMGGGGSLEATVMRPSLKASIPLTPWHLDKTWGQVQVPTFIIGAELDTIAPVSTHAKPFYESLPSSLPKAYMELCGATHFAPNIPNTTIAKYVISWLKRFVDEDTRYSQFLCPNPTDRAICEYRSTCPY [Cut190*SS]	PET hydrolysis product formed	0
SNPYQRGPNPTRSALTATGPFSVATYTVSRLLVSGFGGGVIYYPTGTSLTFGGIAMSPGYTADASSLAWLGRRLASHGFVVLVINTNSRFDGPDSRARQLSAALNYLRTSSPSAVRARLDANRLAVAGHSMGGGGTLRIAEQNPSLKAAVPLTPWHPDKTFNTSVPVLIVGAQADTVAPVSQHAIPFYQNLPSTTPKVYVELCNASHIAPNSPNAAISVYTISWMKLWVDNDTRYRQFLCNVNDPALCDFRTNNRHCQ [LCC-ICCG I6M]	PET hydrolysis product formed	0.0378

###

# TEST PROTOCOL: BHET released, HPLC; higher = more BHET released; extreme values may be limits of the assay
# RECORDED CONDITIONS: PET substrate: cryPow; 70 °C; pH 7.5; 24 h
REPORTED METRIC: BHET released (mM)

SEQUENCE DATA	REPORTED
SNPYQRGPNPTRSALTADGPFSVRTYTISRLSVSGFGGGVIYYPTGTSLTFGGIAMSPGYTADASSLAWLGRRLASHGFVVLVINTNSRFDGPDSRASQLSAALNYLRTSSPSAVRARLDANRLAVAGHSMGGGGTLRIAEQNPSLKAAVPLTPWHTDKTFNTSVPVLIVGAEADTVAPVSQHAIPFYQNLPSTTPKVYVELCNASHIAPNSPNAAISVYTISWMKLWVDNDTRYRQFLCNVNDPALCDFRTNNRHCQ [LCC-ICCG RIP]	0
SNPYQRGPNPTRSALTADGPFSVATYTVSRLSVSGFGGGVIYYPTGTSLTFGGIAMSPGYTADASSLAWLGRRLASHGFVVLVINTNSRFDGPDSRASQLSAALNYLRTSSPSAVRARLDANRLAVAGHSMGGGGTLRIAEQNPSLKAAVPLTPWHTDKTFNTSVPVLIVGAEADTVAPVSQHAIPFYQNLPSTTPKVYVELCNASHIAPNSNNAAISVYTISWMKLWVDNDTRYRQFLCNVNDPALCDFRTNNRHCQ [LCC-ICCG]	0

###

# TEST PROTOCOL: terephthalic acid (TPA) released, HPLC; higher = more TPA released; extreme values may be limits of the assay
# RECORDED CONDITIONS: PET substrate: cryPow; 70 °C; pH 8.5; 24 h
Classification field: MET = terephthalic acid at or over 0.1 mM; NOT MET = terephthalic acid under 0.1 mM.

SEQUENCE DATA	DISCRETE LABEL
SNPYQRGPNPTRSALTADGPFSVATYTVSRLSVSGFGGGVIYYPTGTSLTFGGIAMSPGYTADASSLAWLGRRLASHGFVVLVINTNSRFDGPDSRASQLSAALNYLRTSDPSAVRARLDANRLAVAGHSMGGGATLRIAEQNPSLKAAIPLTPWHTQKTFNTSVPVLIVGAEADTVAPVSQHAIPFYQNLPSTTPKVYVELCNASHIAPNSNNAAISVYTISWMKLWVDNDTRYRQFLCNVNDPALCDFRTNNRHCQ [LCC-ICCG DAQI]	NOT MET
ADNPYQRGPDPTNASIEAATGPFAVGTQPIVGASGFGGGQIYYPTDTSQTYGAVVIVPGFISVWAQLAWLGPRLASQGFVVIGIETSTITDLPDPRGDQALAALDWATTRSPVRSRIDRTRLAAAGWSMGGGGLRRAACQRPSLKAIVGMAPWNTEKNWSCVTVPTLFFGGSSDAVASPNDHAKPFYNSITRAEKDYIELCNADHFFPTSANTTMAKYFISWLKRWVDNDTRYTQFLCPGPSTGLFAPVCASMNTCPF [CaPETaseM9]	NOT MET
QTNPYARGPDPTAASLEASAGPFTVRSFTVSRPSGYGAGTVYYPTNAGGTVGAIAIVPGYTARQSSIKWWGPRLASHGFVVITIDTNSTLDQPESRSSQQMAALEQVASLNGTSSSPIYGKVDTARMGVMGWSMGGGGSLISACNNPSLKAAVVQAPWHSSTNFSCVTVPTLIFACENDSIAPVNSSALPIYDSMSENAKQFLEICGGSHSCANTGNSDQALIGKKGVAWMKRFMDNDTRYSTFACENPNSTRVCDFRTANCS [Z1-PETase]	NOT MET
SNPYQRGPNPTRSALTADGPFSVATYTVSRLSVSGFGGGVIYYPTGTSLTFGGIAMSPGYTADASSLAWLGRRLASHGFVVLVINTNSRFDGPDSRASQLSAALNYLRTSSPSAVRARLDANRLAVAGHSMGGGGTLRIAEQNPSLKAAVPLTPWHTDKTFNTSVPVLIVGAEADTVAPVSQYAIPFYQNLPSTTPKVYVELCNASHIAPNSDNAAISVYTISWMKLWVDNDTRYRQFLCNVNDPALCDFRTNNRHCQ [LCC-A2]	MET
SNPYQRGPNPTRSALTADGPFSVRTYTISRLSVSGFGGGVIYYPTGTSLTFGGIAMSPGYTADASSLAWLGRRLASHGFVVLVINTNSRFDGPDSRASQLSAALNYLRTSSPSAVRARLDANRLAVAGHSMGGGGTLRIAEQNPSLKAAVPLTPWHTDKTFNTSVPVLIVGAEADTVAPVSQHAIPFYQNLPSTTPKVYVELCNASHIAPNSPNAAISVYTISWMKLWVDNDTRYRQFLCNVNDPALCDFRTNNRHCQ [LCC-ICCG RIP]	MET
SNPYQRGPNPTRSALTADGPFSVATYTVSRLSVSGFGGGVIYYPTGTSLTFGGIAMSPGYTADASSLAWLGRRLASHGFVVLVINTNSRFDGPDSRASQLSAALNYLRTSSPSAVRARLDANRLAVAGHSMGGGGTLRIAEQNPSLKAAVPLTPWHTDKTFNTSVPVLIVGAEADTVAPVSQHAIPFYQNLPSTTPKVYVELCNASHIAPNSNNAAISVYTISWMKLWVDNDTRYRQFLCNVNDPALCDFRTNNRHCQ [LCC-ICCG]	MET
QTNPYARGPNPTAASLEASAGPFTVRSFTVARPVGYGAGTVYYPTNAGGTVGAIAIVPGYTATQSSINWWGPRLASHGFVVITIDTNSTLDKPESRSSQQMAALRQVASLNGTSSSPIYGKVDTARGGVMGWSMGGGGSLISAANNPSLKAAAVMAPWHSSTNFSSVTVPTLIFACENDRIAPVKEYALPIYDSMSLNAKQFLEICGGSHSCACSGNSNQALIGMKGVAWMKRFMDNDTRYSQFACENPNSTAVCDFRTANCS [HotPETase]	MET

###

# TEST PROTOCOL: PET hydrolysis product formed (TPA+MHET+BHET, UV-Vis) per mg enzyme (mmol/mg enzyme); higher = more PET depolymerisation activity; extreme values may be limits of the assay
# RECORDED CONDITIONS: PET substrate: aFilm; 70 °C; pH 8.5; 24 h

SEQUENCE DATA	PET hydrolysis product formed
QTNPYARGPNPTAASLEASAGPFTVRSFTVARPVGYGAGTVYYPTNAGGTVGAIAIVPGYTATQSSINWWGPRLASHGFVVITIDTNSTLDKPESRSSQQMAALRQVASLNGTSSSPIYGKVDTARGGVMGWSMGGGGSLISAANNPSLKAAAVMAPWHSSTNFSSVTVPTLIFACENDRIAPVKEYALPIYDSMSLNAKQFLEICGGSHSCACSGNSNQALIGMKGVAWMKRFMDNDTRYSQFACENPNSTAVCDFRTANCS [HotPETase]	0.049
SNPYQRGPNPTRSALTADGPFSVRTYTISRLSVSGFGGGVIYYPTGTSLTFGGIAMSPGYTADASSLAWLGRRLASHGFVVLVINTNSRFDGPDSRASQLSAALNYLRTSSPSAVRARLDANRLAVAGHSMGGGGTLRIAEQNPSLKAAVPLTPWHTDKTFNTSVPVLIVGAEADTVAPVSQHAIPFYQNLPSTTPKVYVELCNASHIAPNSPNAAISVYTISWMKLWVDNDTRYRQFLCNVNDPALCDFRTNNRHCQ [LCC-ICCG RIP]	0.1
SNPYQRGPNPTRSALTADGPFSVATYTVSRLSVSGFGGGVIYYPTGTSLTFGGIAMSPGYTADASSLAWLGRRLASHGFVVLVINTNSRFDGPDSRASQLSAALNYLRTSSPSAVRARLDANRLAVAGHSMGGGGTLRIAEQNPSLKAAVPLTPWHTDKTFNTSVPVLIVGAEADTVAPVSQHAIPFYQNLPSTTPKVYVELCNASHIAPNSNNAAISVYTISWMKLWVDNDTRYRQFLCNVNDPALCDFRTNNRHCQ [LCC-ICCG]	0.107
